Measured Ki of individual entries
STUDY_TARGET: UniProt:P0DMS8
TEST_METHOD_NOTES: Displacement of [125I]AB-MECA from human adenosine A3 receptor expressed in HEK293 cells
Format: cell-based
EXPERIMENTAL_READOUT: Ki

[
  {
    "SMILES_RECORD": "CC(=O)Nc1nc(-c2ccccc2)cc(-c2ccccc2)n1",
    "EXPERIMENTAL_READOUT": "Ki",
    "RESULT": "237 nM (antagonist)"
  },
  {
    "SMILES_RECORD": "CC(C)CC(=O)Nc1cc(-c2ccccc2)nc(-c2ccccc2)n1",
    "EXPERIMENTAL_READOUT": "Ki",
    "RESULT": "447 nM (antagonist)"
  },
  {
    "SMILES_RECORD": "COc1ccc(C(=O)Nc2cc(-c3ccccc3)nc(-c3ccccc3)n2)cc1",
    "EXPERIMENTAL_READOUT": "Ki",
    "RESULT": "1170 nM (antagonist)"
  },
  {
    "SMILES_RECORD": "O=C(Nc1nc(-c2ccccc2)cc(-c2ccccc2)n1)c1ccc(Cl)cc1",
    "EXPERIMENTAL_READOUT": "Ki",
    "RESULT": "3280 nM (antagonist)"
  },
  {
    "SMILES_RECORD": "O=C(Nc1cc(-c2ccccc2)nc(-c2ccccc2)n1)C1CCC1",
    "EXPERIMENTAL_READOUT": "Ki",
    "RESULT": "178 nM (antagonist)"
  },
  {
    "SMILES_RECORD": "CCC(=O)Nc1nc(-c2ccccc2)cc(-c2ccccc2)n1",
    "EXPERIMENTAL_READOUT": "Ki",
    "RESULT": "547 nM (antagonist)"
  }
]

====

STUDY_TARGET: Adenosine receptor A3 (Homo sapiens) (UniProt P0DMS8)
Sequence (whole entry): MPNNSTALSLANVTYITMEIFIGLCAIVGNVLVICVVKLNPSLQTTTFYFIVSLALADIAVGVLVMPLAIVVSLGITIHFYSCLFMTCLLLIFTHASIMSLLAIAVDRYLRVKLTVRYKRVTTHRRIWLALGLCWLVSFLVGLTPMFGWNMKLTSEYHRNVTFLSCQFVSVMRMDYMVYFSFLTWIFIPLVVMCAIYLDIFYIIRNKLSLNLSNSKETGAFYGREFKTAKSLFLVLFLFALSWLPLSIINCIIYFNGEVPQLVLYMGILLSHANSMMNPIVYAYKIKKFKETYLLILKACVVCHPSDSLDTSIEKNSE
TEST_METHOD_NOTES: Displacement of [125I]AB-MECA from human adenosine A3 receptor expressed in HEK293 cells at 1 uM
Type: cell-based

[
  {
    "SMILES_RECORD": "O=C(Nc1nc(-c2ccccc2)cc(-c2ccccc2)n1)c1cccc(Cl)c1",
    "Activity / %": 41
  },
  {
    "SMILES_RECORD": "Cc1ccc(C(=O)Nc2nc(-c3ccccc3)cc(-c3ccccc3)n2)cc1",
    "Activity / %": 13
  },
  {
    "SMILES_RECORD": "CC(C)CC(=O)Nc1nc(-c2ccccc2)cc(-c2ccccc2)n1",
    "Activity / %": 23
  },
  {
    "SMILES_RECORD": "O=C(Nc1nc(-c2ccccc2)cc(-c2ccccc2)n1)C1CCC1",
    "Activity / %": 18
  },
  {
    "SMILES_RECORD": "CCC(CC)C(=O)Nc1nc(-c2ccccc2)cc(-c2ccccc2)n1",
    "Activity / %": 27
  },
  {
    "SMILES_RECORD": "CCC(CC)C(=O)Nc1cc(-c2ccccc2)nc(-c2ccccc2)n1",
    "Activity / %": 57
  },
  {
    "SMILES_RECORD": "O=C(Nc1nc(-c2ccccc2)cc(-c2ccccc2)n1)C1CCCCC1",
    "Activity / %": 9
  },
  {
    "SMILES_RECORD": "O=C(Nc1nc(-c2ccccc2)cc(-c2ccccc2)n1)c1ccc(Cl)c(Cl)c1",
    "Activity / %": 30
  },
  {
    "SMILES_RECORD": "O=C(Nc1cc(-c2ccccc2)nc(-c2ccccc2)n1)C1CCCCC1",
    "Activity / %": 32
  },
  {
    "SMILES_RECORD": "CC(C)(C)CC(=O)Nc1cc(-c2ccccc2)nc(-c2ccccc2)n1",
    "Activity / %": 39
  }
]

====

STUDY_TARGET: Adenosine receptor A2a (Homo sapiens)
Sequence (P29274 whole entry): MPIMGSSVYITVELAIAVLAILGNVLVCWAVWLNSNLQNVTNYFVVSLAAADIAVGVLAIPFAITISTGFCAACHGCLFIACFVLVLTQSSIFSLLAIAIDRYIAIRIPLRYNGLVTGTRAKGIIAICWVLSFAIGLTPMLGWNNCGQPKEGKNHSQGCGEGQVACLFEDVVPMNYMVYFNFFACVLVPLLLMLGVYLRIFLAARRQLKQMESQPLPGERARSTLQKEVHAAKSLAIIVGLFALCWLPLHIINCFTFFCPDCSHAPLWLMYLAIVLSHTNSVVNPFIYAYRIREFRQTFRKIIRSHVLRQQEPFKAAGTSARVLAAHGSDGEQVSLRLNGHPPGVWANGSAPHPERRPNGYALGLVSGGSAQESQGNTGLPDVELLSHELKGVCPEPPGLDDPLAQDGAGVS
TEST_METHOD_NOTES: Displacement of [3H]ZM241385 from human adenosine A2A receptor expressed in HEK293 cells at 1 uM
Assay type: cell-based
Values of Activity strictly less than 30% map to Criterion met, and values of at least 30% map to Criterion not met.

[
  {
    "SMILES_RECORD": "O=C(Nc1nc(-c2ccccc2)cc(-c2ccccc2)n1)C1CCCC1",
    "CLASS": "Criterion met"
  },
  {
    "SMILES_RECORD": "CCCCC(=O)Nc1nc(-c2ccccc2)cc(-c2ccccc2)n1",
    "CLASS": "Criterion met"
  },
  {
    "SMILES_RECORD": "O=C(Nc1nc(-c2ccccc2)cc(-c2ccccc2)n1)c1ccccc1",
    "CLASS": "Criterion met"
  },
  {
    "SMILES_RECORD": "CCC(CC)C(=O)Nc1nc(-c2ccccc2)cc(-c2ccccc2)n1",
    "CLASS": "Criterion met"
  },
  {
    "SMILES_RECORD": "COc1ccc(C(=O)Nc2nc(-c3ccccc3)cc(-c3ccccc3)n2)cc1",
    "CLASS": "Criterion not met"
  },
  {
    "SMILES_RECORD": "O=C(Nc1nc(-c2ccccc2)cc(-c2ccccc2)n1)C1CCCCC1",
    "CLASS": "Criterion not met"
  },
  {
    "SMILES_RECORD": "CCCCCC(=O)Nc1cc(-c2ccccc2)nc(-c2ccccc2)n1",
    "CLASS": "Criterion not met"
  },
  {
    "SMILES_RECORD": "CC(=O)Nc1nc(-c2ccccc2)cc(-c2ccccc2)n1",
    "CLASS": "Criterion not met"
  },
  {
    "SMILES_RECORD": "CC(C)(C)CC(=O)Nc1cc(-c2ccccc2)nc(-c2ccccc2)n1",
    "CLASS": "Criterion not met"
  },
  {
    "SMILES_RECORD": "COc1ccc(C(=O)Nc2cc(-c3ccccc3)nc(-c3ccccc3)n2)cc1",
    "CLASS": "Criterion met"
  },
  {
    "SMILES_RECORD": "O=C(Nc1nc(-c2ccccc2)cc(-c2ccccc2)n1)c1cccc(Cl)c1",
    "CLASS": "Criterion met"
  },
  {
    "SMILES_RECORD": "O=C(Nc1cc(-c2ccccc2)nc(-c2ccccc2)n1)c1ccccc1",
    "CLASS": "Criterion met"
  },
  {
    "SMILES_RECORD": "O=C(Nc1cc(-c2ccccc2)nc(-c2ccccc2)n1)c1ccc(Cl)cc1",
    "CLASS": "Criterion met"
  },
  {
    "SMILES_RECORD": "Cc1ccc(C(=O)Nc2nc(-c3ccccc3)cc(-c3ccccc3)n2)cc1",
    "CLASS": "Criterion met"
  },
  {
    "SMILES_RECORD": "CCCCCC(=O)Nc1nc(-c2ccccc2)cc(-c2ccccc2)n1",
    "CLASS": "Criterion met"
  },
  {
    "SMILES_RECORD": "CC(C)(C)C(=O)Nc1nc(-c2ccccc2)cc(-c2ccccc2)n1",
    "CLASS": "Criterion met"
  },
  {
    "SMILES_RECORD": "O=C(Nc1nc(-c2ccccc2)cc(-c2ccccc2)n1)C1CCC1",
    "CLASS": "Criterion not met"
  },
  {
    "SMILES_RECORD": "CC(C)CC(=O)Nc1nc(-c2ccccc2)cc(-c2ccccc2)n1",
    "CLASS": "Criterion not met"
  },
  {
    "SMILES_RECORD": "O=C(Nc1nc(-c2ccccc2)cc(-c2ccccc2)n1)c1ccc(Cl)cc1",
    "CLASS": "Criterion met"
  },
  {
    "SMILES_RECORD": "CC(C)C(=O)Nc1nc(-c2ccccc2)cc(-c2ccccc2)n1",
    "CLASS": "Criterion not met"
  },
  {
    "SMILES_RECORD": "CCCC(=O)Nc1nc(-c2ccccc2)cc(-c2ccccc2)n1",
    "CLASS": "Criterion met"
  },
  {
    "SMILES_RECORD": "CC(C)(C)C(=O)Nc1cc(-c2ccccc2)nc(-c2ccccc2)n1",
    "CLASS": "Criterion met"
  },
  {
    "SMILES_RECORD": "O=C(Nc1nc(-c2ccccc2)cc(-c2ccccc2)n1)c1ccc(Cl)c(Cl)c1",
    "CLASS": "Criterion met"
  }
]
